Biological target: full-length human CSNK1D (Homo sapiens)
Sequence (P48730 whole entry): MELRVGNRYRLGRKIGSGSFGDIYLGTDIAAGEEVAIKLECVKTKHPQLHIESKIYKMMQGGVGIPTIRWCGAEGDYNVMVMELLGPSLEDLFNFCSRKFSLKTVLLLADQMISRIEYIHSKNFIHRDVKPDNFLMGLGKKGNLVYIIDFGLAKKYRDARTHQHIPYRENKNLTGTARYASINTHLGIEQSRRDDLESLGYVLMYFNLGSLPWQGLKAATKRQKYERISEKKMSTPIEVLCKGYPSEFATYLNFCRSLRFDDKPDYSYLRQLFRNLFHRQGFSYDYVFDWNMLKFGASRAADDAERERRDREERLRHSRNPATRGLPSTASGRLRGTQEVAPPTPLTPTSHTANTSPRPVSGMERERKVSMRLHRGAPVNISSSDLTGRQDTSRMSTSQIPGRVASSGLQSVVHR
So basically, if IC50 comes in under 10 nM it's Met, and if it's 10 nM or more it's Not met.

INSERT INTO results (compound, targetdesc, cat) VALUES
  ('O=C(Nc1cc(-c2[nH]c3cc(Cl)cnc3c2-c2ccccn2)ccn1)C(CC(F)F)c1ccc(F)cc1 (single isomer, unassigned) [Example 88]', 'full-length human CSNK1D (Homo sapiens)', 'Met'),
  ('O=C(Nc1cc(-c2[nH]c3cncnc3c2-c2ccccn2)ccn1)C(CC(F)F)c1ccc(F)cc1 (single isomer, unassigned; (-)) [Example 14]', 'full-length human CSNK1D (Homo sapiens)', 'Not met'),
  ('O=C(Nc1cc(-c2[nH]c3nccnc3c2-c2ccccn2)ccn1)C(CC(F)(F)F)c1ccc(F)cc1 (racemic) [Example 119]', 'full-length human CSNK1D (Homo sapiens)', 'Met'),
  ('O=C(Nc1cc(-c2[nH]c3c(OC4CC4)cc(F)nc3c2-c2ccccn2)ccn1)C(CC(F)F)c1ccc(F)cc1 (single isomer, unassigned) [Example 44]', 'full-length human CSNK1D (Homo sapiens)', 'Met'),
  ('O=C(Nc1cc(-c2[nH]c3c(C4CCCO4)cc(F)nc3c2-c2ccccn2)ccn1)C(CC(F)F)c1ccc(F)cc1 (single isomer, unassigned) [Example 115]', 'full-length human CSNK1D (Homo sapiens)', 'Met');

Q: Report whether reported IC50 is lower than 10 nM (strictly) for O=C(Nc1cc(-c2[nH]c3c(C4CCCO4)cc(F)nc3c2-c2ccccn2)ccn1)C(CC(F)F)c1ccc(F)cc1 (racemic) [Example 114]
Ans: Met

Q: Report whether reported IC50 is lower than 10 nM (strictly) for O=C(Nc1cc(-c2[nH]c3nccnc3c2-c2ccccn2)ccn1)C(CC(F)(F)F)c1ccc(F)cc1 (single isomer, unassigned) [Example 120]
Ans: Met

Q: Report whether reported IC50 is lower than 10 nM (strictly) for Cc1cc(F)nc2c(-c3ccccn3)c(-c3ccnc(NC(=O)C(CC(F)F)c4ccc(F)cc4)c3)[nH]c12 (single isomer, unassigned; (+)) [Example 37]
Ans: Met

###

Target: full-length human CSNK1A1 (Homo sapiens)
Construct: N-terminal Glutathion-S-Transferase (GST) and full-length human CSNK1A1; purchased Life Technologies PV4174; host or cells: baculovirus infected insect cells
Assay: CSNK1A1 High ATP Assay (ADP-Glo, 1 mM ATP);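 also: 30 min kinase reaction at 22 °C with 100 µM peptide substrate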
Format: biochemical
Details: Table 3, read-out: CSNK1A1 high ATP assay IC50 [mol/l] (median)
metricName: pIC50
Scale explanation: pIC50 corresponds to minus log10 of a concentration expressed in moles per litre.

Below, 5 molecules whose answers are already recorded.
INSERT INTO assay_data (molecule, assayvalue) VALUES
  ('O=C(Nc1cc(-c2[nH]c3c(CC4CC4)cc(F)nc3c2-c2ccccn2)ccn1)C(CC(F)F)c1ccc(F)cc1 (single isomer, unassigned) [Example 47]', 7.50),
  ('O=C(Nc1cc(-c2[nH]c3c(OC4CC4)cc(F)nc3c2-c2ccccn2)ccn1)C(CC(F)F)c1ccc(F)cc1 (stereo not drawn) [Example 45]', 7.65),
  ('O=C(Nc1cc(-c2[nH]c3c(N4CCNCC4)ccnc3c2-c2ccccn2)ccn1)C(CC(F)F)c1ccc(F)cc1 (single isomer, unassigned) [Example 94]', 8.64),
  ('O=C(Nc1cc(-c2[nH]c3c(OCC(F)F)cc(F)nc3c2-c2ccccn2)ccn1)C(CC(F)F)c1ccc(F)cc1 (single isomer, unassigned) [Example 29]', 8.48),
  ('O=C(Nc1cc(-c2[nH]c3nccnc3c2-c2ccccn2)ccn1)C(CC(F)(F)F)c1ccc(F)cc1 (single isomer, unassigned) [Example 121]', 6.02);

Q: Looking for the measured pIC50 of O=C(Nc1cc(-c2[nH]c3c(C4CCCO4)cc(F)nc3c2-c2ccccn2)ccn1)C(CC(F)F)c1ccc(F)cc1 (racemic) [Example 114] , can you help?
Ans: 7.43

Q: Looking for the measured pIC50 of O=C(Nc1cc(-c2[nH]c3c(OCC(F)F)cc(F)nc3c2-c2ccccn2)ccn1)C(CC(F)F)c1ccc(F)cc1 (single isomer, unassigned) [Example 30] , can you help?
Ans: 8.05

Q: Looking for the measured pIC50 of CC(C)(O)c1cc(F)nc2c(-c3ccccn3)c(-c3ccnc(NC(=O)C(CC(F)F)c4ccc(F)cc4)c3)[nH]c12 (single isomer, unassigned) [Example 99] , can you help?
Ans: 8.45

Q: Looking for the measured pIC50 of Cc1cnc2c(-c3ccccn3)c(-c3ccnc(NC(=O)C(CC(F)F)c4ccc(F)cc4)c3)[nH]c2c1 (single isomer, unassigned) [Example 8] , can you help?
Ans: 8.07

Q: Looking for the measured pIC50 of O=C(Nc1cc(-c2[nH]c3c(OCC(F)(F)F)ncnc3c2-c2ccccn2)ccn1)C(CC(F)F)c1ccc(F)cc1 (single isomer, unassigned) [Example 124] , can you help?
Ans: 5.66

Q: Looking for the measured pIC50 of O=C(Nc1cc(-c2[nH]c3c(OC[C@H]4COCCO4)cc(F)nc3c2-c2ccccn2)ccn1)C(CC(F)F)c1ccc(F)cc1 (mixture of isomers) [Example 50] , can you help?
Ans: 8.03

###

Target: full-length human CSNK1A1 (Homo sapiens, UniProt P48729)
Construct: N-terminal Glutathion-S-Transferase (GST) and full-length human CSNK1A1; purchased Life Technologies PV4174; host or cells: baculovirus infected insect cells
Sequence (P48729 whole entry): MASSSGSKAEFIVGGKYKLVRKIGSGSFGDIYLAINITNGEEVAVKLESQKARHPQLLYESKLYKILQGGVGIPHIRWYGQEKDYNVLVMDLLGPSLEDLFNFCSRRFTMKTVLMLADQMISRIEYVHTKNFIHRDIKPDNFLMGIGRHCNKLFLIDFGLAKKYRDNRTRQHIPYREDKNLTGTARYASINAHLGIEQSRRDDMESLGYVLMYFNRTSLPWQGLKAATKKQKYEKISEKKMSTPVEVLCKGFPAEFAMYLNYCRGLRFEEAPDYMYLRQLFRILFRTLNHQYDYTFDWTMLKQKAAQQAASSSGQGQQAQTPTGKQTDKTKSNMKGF
Experiment: CSNK1A1 Assay 2 (ADP-Glo, 1 μM ATP, substrate biotin-Ahx-KRRRAL-pS-VASLPGL)
Type: biochemical
Details: Table 3, read-out: CSNK1A1 Assay 2 IC50 [mol/l] (median)
Each entry below carries its recorded pIC50.
Scale explanation: pIC50 corresponds to minus log10 of a concentration expressed in moles per litre.

Below, 2 molecules whose answers are already recorded.
INSERT INTO measurements (molecule, metricname, assayvalue) VALUES
  ('O=C(Nc1cc(-c2[nH]c3c(CC4CC4)cc(F)nc3c2-c2ccccn2)ccn1)C(CC(F)F)c1ccc(F)cc1 (single isomer, unassigned) [Example 47]', 'pIC50', 7.50),
  ('O=C(Nc1cc(-c2[nH]c3cncnc3c2-c2ccccn2)ccn1)C(CC(F)F)c1ccc(F)cc1 (racemic) [Example 13]', 'pIC50', 8.33);

Q: Param readout = pIC50; param system = full-length human CSNK1A1 (Homo sapiens, UniProt P48729); param query = O=C(Nc1cc(-c2[nH]c3ccc(F)nc3c2-c2ccc(F)cn2)ccn1)C(CC(F)F)c1ccc(F)cc1 (stereo not drawn) [Example 108] ; response: value
Ans: 8.34

###

Below are IC50 values measured for full-length human CSNK1D (Homo sapiens).
Quick reminder: number only, in nM, skip the unit.

Below, 5 compounds whose answers are already recorded.
INSERT INTO measurements (compound, metricname, unitspec, assayvalue) VALUES
  ('O=C(Nc1cc(-c2[nH]c3cc(F)cnc3c2-c2ccccn2)ccn1)C(CC(F)F)c1ccc(F)cc1 (racemic) [Example 16]', 'IC50', 'nM', 4.57),
  ('O=C(Nc1cc(-c2[nH]c3cccnc3c2-c2ccccn2)ccn1)C(CC(F)F)c1ccc(F)cc1 (single isomer, unassigned; (-)) [Example 12]', 'IC50', 'nM', 12.4),
  ('O=C(Nc1cc(-c2[nH]c3c(OCC(F)F)ncnc3c2-c2ccccn2)ccn1)C(CC(F)F)c1ccc(F)cc1 (single isomer, unassigned) [Example 79]', 'IC50', 'nM', 3.27),
  ('O=C(Nc1cc(-c2[nH]c3c(OCC(F)(F)F)ncnc3c2-c2ccccn2)ccn1)C(CC(F)F)c1ccc(F)cc1 (single isomer, unassigned) [Example 123]', 'IC50', 'nM', 4.49),
  ('CC(C)(O)c1cc(F)nc2c(-c3ccccn3)c(-c3ccnc(NC(=O)C(CC(F)F)c4ccc(F)cc4)c3)[nH]c12 (single isomer, unassigned) [Example 100]', 'IC50', 'nM', 46.3);

Q: Param readout = IC50; param system = full-length human CSNK1D (Homo sapiens); param query = COc1cnc2c(-c3ccccn3)c(-c3ccnc(NC(=O)C(CC(F)F)c4ccc(F)cc4)c3)[nH]c2n1 (single isomer, unassigned) [Example 103] ; response: value
Ans: 4.3

Q: Param readout = IC50; param system = full-length human CSNK1D (Homo sapiens); param query = O=C(Nc1cc(-c2[nH]c3cc(Cl)nnc3c2-c2ccccn2)ccn1)C(CC(F)F)c1ccc(F)cc1 (racemic) [Example 68] ; response: value
Ans: 14.4

Q: Param readout = IC50; param system = full-length human CSNK1D (Homo sapiens); param query = O=C(Nc1cc(-c2[nH]c3cc(F)cnc3c2-c2ccccc2)ccn1)C(CC(F)F)c1ccc(F)cc1 (racemic) [Example 19] ; response: value
Ans: 6.92

Q: Param readout = IC50; param system = full-length human CSNK1D (Homo sapiens); param query = O=C(Nc1cc(-c2[nH]c3cccnc3c2-c2ccccn2)ccn1)C(CCO)c1ccc(F)cc1 (stereo not drawn) [Example 104] ; response: value
Ans: 16.3
